- TESTED_SYSTEM: T1, OkrAI (Oceanospirillum kriegii, UniProt E2JKI3 1-194)
- T1 sequence: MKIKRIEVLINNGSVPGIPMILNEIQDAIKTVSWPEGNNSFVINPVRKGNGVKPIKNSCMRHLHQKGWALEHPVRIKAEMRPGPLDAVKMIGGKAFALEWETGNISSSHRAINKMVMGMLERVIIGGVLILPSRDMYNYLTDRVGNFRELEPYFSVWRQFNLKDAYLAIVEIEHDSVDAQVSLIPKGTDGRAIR
- ASSAY_NOTES: fluorescence anisotropy
READOUT: pKd
Please express pKd as -log10 of the molar concentration.

Name the recorded pKd of the binder listed here: 20-mer cognate duplex (dsDNA) DNA 1: TATGAGCGGATCCTTACGAG DNA 2: CTCGTAAGGATCCGCTCATA
7.89
